Tested on: P-4E-BP1 (T37/46)
measurement protocol: Cell based AlphaLISA assay, inhibition of P-4E-BP1 (T37/46) in MDA-MB-468 cells (mTORC1 substrate)
condition set: Homo sapiens, 4 h, AlphaLisa, two to four hours at 37° C., read-out: pIC50 for Inhibition of mTORC1 and mTORC2 Substrate Phosphorylation P-4E-BP1-(T37/46) (converted)
measured attribute: IC50

Name the recorded IC50 of the molecule listed here: CO[C@H]1C[C@@H]2CC[C@@H](C)[C@@](O)(O2)C(=O)C(=O)N2CCCC[C@H]2C(=O)O[C@H]([C@H](C)C[C@@H]2CC[C@@H](OC(=O)N3CCc4nc(N5CCN(c6ncc(C(=O)N7CCN(c8ncc(C(=O)N9CCc%10cc(Cn%11nc(-c%12cnc%13[nH]ccc%13c%12)c%12c(N)ncnc%12%11)ccc%10C9)cn8)CC7)cn6)CC5)ncc4C3)[C@H](OC)C2)CC(=O)[C@H](C)/C=C(\C)[C@@H](O)[C@@H](OC)C(=O)[C@H](C)C[C@H](C)/C=C/C=C/C=C/1C [Example 142]
> 1000 nM

Name the recorded IC50 of the molecule listed here: CO[C@H]1C[C@@H]2CC[C@@H](C)[C@@](O)(O2)C(=O)C(=O)N2CCCC[C@H]2C(=O)O[C@H]([C@H](C)C[C@@H]2CC[C@@H](OC(=O)NCc3cnc(N4CCN(C(=O)CCOCCN5CCN(C(=O)CCC(=O)N6CCc7cc(Cn8nc(-c9ccc%10oc(N)nc%10c9)c9c(N)ncnc98)ccc7C6)CC5)CC4)nc3)[C@H](OC)C2)C[C@@H](OC)[C@H](C)/C=C(\C)[C@@H](O)[C@@H](OC)C(=O)[C@H](C)C[C@H](C)/C=C/C=C/C=C/1C [Example 133]
< 3.16 nM

Name the recorded IC50 of the molecule listed here: CO[C@H]1C[C@@H]2CC[C@@H](C)[C@@](O)(O2)C(=O)C(=O)N2CCCC[C@H]2C(=O)O[C@H]([C@H](C)C[C@@H]2CC[C@@H](OC(=O)NCc3cnc(N4CCN(C(=O)CN(C)CC(=O)NCCOCCOCCC(=O)N5CCc6cc(Cn7nc(-c8ccc9oc(N)nc9c8)c8c(N)ncnc87)ccc6C5)CC4)nc3)[C@H](OC)C2)C[C@@H](OC)[C@H](C)/C=C(\C)[C@@H](O)[C@@H](OC)C(=O)[C@H](C)C[C@H](C)/C=C/C=C/C=C/1C [Example 91]
< 3.16 nM
